The entries below come with measured IC50 values attached.
Target: Human CDK7/CycH/MAT1 (Homo sapiens (Human))
Experiment: Radiometric protein kinase assay (33PanQinase Activity Assay), CDK7
Settings: ATP 3 μM
The reply should contain only the number, in nM.

Completed entries (count: 5):
- molecule: "O[C@H]1CNCC[C@@H]1CNc1cc(NCc2c(F)cc(-c3ccccc3)cc2F)n2ncc(C3CC3)c2n1 [PPA-076]"
  measured: 2250
- molecule: "CC(C)c1cnn2c(NCc3ccc(-c4cccnc4)cc3)cc(NC[C@H]3CCNC[C@@H]3O)nc12 [PPA-003]"
  measured: 76
- molecule: "COc1cccnc1-c1ccc(CNc2cc(NC[C@H]3CCNC[C@@H]3O)nc3c(C4CC4)cnn23)cc1 [PPA-027]"
  measured: 300
- molecule: "N#Cc1cnn2c(NCc3ccc(-c4ccccc4)cc3F)cc(N[C@H]3CCNC3)nc12 [PPA-071]"
  measured: 1550
- molecule: "c1ccc(-c2ccc(CNc3cc(N[C@@H]4CCNC4)nc4c(C5CC5)cnn34)cc2)nc1 [PPA-043]"
  measured: 6080

Value of measured IC50 for the entry O[C@H]1CNCC[C@@H]1CNc1cc(NCc2ccc(-c3nccs3)cc2)n2ncc(C3CC3)c2n1 [PPA-018] : 106

Value of measured IC50 for the entry c1ccc(-c2ccc(CNc3cc(OCC4CNC4)nc4c(C5CC5)cnn34)cc2)nc1 [PPA-055] : 2390

Value of measured IC50 for the entry O[C@H]1CNCC[C@@H]1CNc1cc(NCc2cc(F)c(-c3ccccn3)cn2)n2ncc(C3CC3)c2n1 [PPA-022] : 130

Value of measured IC50 for the entry COc1cccnc1-c1ccc(CNc2cc(NC[C@H]3CCNC[C@@H]3O)nc3c(C(C)C)cnn23)cc1 [PPA-013] : 114

Value of measured IC50 for the entry CCc1cnn2c(NCc3ccc(-c4ccccn4)cc3F)cc(NC[C@H]3CCNC[C@@H]3O)nc12 [PPA-068] : 323

----------
Target: Human CDK7/CycH/MAT1 (Homo sapiens (Human), UniProt P50613)
Sequence (P50613 whole entry): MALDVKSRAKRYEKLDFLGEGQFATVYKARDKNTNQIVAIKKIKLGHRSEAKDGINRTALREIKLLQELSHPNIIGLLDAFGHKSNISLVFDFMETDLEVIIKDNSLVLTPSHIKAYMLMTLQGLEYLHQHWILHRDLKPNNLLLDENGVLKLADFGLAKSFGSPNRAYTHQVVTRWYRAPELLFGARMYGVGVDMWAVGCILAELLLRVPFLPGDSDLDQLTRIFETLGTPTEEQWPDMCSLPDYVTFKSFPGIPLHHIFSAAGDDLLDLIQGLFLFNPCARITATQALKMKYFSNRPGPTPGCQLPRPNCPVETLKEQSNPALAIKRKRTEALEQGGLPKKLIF
Sequence (P51946 whole entry partner): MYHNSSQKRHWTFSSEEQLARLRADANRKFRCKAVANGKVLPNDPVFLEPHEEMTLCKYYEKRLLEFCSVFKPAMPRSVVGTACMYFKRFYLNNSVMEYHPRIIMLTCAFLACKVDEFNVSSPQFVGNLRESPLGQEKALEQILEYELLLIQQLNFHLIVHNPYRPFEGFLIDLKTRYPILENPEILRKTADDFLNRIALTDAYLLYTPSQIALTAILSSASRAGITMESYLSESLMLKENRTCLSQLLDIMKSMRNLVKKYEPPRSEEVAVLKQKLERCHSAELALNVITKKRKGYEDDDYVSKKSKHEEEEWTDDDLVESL
Sequence (P51948 whole entry partner): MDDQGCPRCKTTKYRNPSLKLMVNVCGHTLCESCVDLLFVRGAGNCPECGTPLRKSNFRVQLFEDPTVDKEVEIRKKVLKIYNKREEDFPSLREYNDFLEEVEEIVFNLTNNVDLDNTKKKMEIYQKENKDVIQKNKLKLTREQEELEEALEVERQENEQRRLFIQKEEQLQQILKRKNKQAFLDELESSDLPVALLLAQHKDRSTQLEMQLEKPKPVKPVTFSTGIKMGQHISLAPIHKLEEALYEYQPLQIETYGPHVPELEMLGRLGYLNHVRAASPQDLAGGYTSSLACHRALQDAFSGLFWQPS
Assay: Radiometric protein kinase assay (33PanQinase Activity Assay), CDK7
Conditions: ATP 3 μM
readout type: log10(IC50) (log10 of the value in nM)
Reminder: these figures are log10 of reported IC50, in nM before transformation.

- molecule smiles: "CC(C)c1cnn2c(NCc3ccc(-c4ccccc4)cc3)cc(NC[C@H]3CCNC[C@@H]3O)nc12"
  log10(IC50): 2.76
- molecule smiles: "N#Cc1cnn2c(NCc3ccc(-c4ccccc4)cc3F)cc(NC[C@H]3CCNC[C@@H]3O)nc12"
  log10(IC50): 2.75
- molecule smiles: "c1ccc(-c2ccc(CNc3cc(N4CC5CC(C4)N5)nc4c(C5CC5)cnn34)cc2)nc1"
  log10(IC50): 3.08
- molecule smiles: "c1ccc(-c2ccc(CNc3cc(N4CC5(CNC5)C4)nc4c(C5CC5)cnn34)cc2)nc1"
  log10(IC50): 4.15
- molecule smiles: "Cn1cc(-c2ccccn2)nc1CNc1cc(NC[C@H]2CCNC[C@@H]2O)nc2c(C3CC3)cnn12"
  log10(IC50): 1.23

Value of measured log10(IC50) for the entry "O[C@H]1CNCC[C@@H]1CNc1cc(NCc2ccc(-c3ccccn3)cc2)n2ncc(Cl)c2n1" : 1.97

Value of measured log10(IC50) for the entry "c1ccc(-c2ccc(CNc3cc(N[C@@H]4CCCNC4)nc4c(C5CC5)cnn34)cc2)nc1" : 3.98

The reported measurements were obtained from patent US20240383900A1.
